target: CDK2/Cyclin E (Homo sapiens); assay: CDK2/Cyclin E biochemical phosphorylation assay (Caliper mobility shift); settings: apparent IC50; 1.0 mM ATP or ATP Km; 1.25 nM enzyme; 25° C.; read-out: CDK2/cyclin E1 IC50
measuredQuantity: IC50

OCC1CC(n2ncc3ncc(Nc4cc(OC(F)F)[nH]n4)nc32)C1 (stereo not shown) | 20 to 30 nM
C[C@@H](c1cccnc1F)n1nc(C#N)c2ncc(Nc3cc(OC(F)F)[nH]n3)nc21 | ≤ 10 nM

Query: Let me know recorded IC50 for `O[C@H]1C[C@H](Cn2ncc3ncc(Nc4cc(OC(F)F)[nH]n4)nc32)C1` , thanks.
Result: 30 to 100 nM

Query: Let me know recorded IC50 for `Fc1ccc(Cn2ncc3ncc(Nc4cc(OC(F)F)[nH]n4)nc32)cn1` , thanks.
Result: ≤ 10 nM

Query: Let me know recorded IC50 for `C[C@@H](C1COC1)n1ncc2ncc(Nc3cc(OC(F)F)[nH]n3)nc21` , thanks.
Result: ≤ 10 nM

Query: Let me know recorded IC50 for `Cc1nn(Cc2cccnc2)c2nc(Nc3cc(OC(F)F)[nH]n3)cnc12` , thanks.
Result: ≤ 10 nM

Query: Let me know recorded IC50 for `Fc1nn(CC2CCOCC2)c2nc(Nc3cc(OC(F)F)[nH]n3)cnc12` , thanks.
Result: ≤ 10 nM
